# MEASURED TARGET: human apelin receptor (Homo sapiens, UniProt P35414)
# Construct: expressed in transfected cells
# PROTOCOL: Determination of agonism on the human apelin receptor by a calcium fluorescence assay (FLIPR)
# Assay type: cell-based
# TEST PARAMETERS: HEK293 cells stably transfected with human apelin receptor and Giaq protein, Fluo-4 calcium fluorescence, read-out: EC50 (APJ agonism)
# Protocol: Determination of Agonism on the Human Apelin Receptor by a Calcium Fluorescence Assay (FLIPR) The assay is based on the detection of intracellular calcium changes detected by the selective, calcium-chelating dye Fluo-4 (Molecular Probes). A large fluorescence intensity increase is observed upon calcium association with Fluo-4. […] EC-50 values for apelin-13 and the apelin receptor compounds described in this patent were determined by standard algorithms using a specific software package.
ENDPOINT NAME: EC50 (µM)

These recorded examples may help you get a feel for the data.
CCCC(CCO)NC(=O)c1ccc2c(c1)nc(Cc1cccs1)n2C(CC)CC (stereo not shown) [Example 214] :: 0.926
CCCN1CCCC(CNC(=O)[C@H](CC(C)C)NC(=O)c2ccc3c(c2)nc(Cc2cccs2)n3C(CC)CC)C1 (stereo partly shown) :: 0.482
CC(C)C[C@H](NC(=O)c1ccc2c(c1)nc(Cc1cccs1)n2C1CCCCC1C)C(=O)O (stereo partly shown) [Example 146] :: 0.328
CCC(CC)n1c(Cc2cccs2)nc2cc(C(=O)N[C@@H](CC(C)C)C(=O)N3CCC(OC)CC3)ccc21 :: 1.84

P = CCC(CC)n1c(Cc2cccs2)nc2cc(C(=O)N[C@@H](CC(C)C)C(=O)NC3COC4(CCCCC4)C3)ccc21 (stereo partly shown)
Q = CC[C@H](C)[C@@H](CC(=O)O)NC(=O)c1ccc2c(c1)nc(Cc1cccs1)n2[C@@H]1CCCC[C@H]1C
Endpoint returns whichever of P and Q has the numerically higher EC50. Field: selected label. Fill in the label of the entry you choose.
P

###

# MEASURED TARGET: human apelin receptor (Homo sapiens)
# Construct: expressed in transfected cells
# PROTOCOL: Determination of agonism on the human apelin receptor by a calcium fluorescence assay (FLIPR)
# Type: cell-based
# TEST PARAMETERS: HEK293 cells stably transfected with human apelin receptor and Giaq protein, Fluo-4 calcium fluorescence, read-out: EC50 (APJ agonism)
ENDPOINT NAME: EC50 (µM)

CC(C)C[C@H](NC(=O)c1ccc2c(c1)nc(CC1CCCC1)n2CC(C)C)C(=O)O [Example 128] :: 10
CCC(CC)n1c(Cc2cccs2)nc2cc(C(=O)N[C@@H](CC(C)C)C(=O)N(C)C3CCOCC3)ccc21 [Example 377] :: 1.14
CCCC[C@H](CO)NC(=O)c1ccc2c(c1)nc(Cc1cccs1)n2C(CC)CC [Example 198] :: 8.88
CCC(CC)n1c(Cc2cccs2)nc2cc(C(=O)N[C@@H](CC(C)C)C(=O)NCc3cccc(OC)c3)ccc21 [Example 364] :: 13.5

a = CCC(CC)n1c(Cc2cccs2)nc2cc(C(=O)N[C@@H](CC(C)C)C(=O)Nc3ccccc3OC)ccc21 [Example 255]
b = CCC(C)Cn1c(Cc2cccs2)nc2cc(C(=O)N[C@@H](CC3CCCCC3)C(=O)O)ccc21 (stereo partly shown) [Example 145]
Would you kindly point out which of a and b has the smaller EC50 figure? Lab note: record the label of whichever item you select.
a
(a: 6.67 µM, b: 18 µM)

###

# MEASURED TARGET: human apelin receptor (Homo sapiens, UniProt P35414)
# Construct: expressed in transfected cells
# Sequence (P35414 1-380): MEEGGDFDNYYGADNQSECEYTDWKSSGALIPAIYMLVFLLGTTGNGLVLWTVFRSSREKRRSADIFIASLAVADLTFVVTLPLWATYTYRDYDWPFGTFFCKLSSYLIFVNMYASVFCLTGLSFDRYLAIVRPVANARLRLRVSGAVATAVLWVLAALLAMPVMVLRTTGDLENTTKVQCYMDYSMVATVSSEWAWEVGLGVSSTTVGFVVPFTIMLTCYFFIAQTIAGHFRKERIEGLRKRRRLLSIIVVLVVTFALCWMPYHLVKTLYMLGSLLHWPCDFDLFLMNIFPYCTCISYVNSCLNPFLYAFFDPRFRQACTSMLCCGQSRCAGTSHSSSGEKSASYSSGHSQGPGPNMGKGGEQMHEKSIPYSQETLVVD
# PROTOCOL: Determination of agonism on the human apelin receptor by a calcium fluorescence assay (FLIPR)
# Assay type: cell-based
# TEST PARAMETERS: HEK293 cells stably transfected with human apelin receptor and Giaq protein, Fluo-4 calcium fluorescence, read-out: EC50 (APJ agonism)
ENDPOINT NAME: EC50 (nM)

Here's what some known entries look like.
C[C@@H]1CCCC[C@H]1n1c(Cc2cncs2)nc2cc(C(=O)N[C@@H](CC3CCCCC3)C(=O)O)ccc21 :: 886
CCC(CC)n1c(Cc2cccs2)nc2cc(C(=O)N[C@@H](CC(C)C)C(=O)N3C[C@H]4C[C@@H]3CN4Cc3ccccc3)ccc21 :: 4410
CCC(C)NC(=O)[C@H](CC(C)C)NC(=O)c1ccc2c(c1)nc(Cc1cccs1)n2C(CC)CC (stereo partly shown) :: 2010

1 = CCC(CC)n1c(Cc2cccs2)nc2cc(C(=O)N[C@@H](CC(C)C)C(=O)N3CCN(Cc4ccccc4)CC3)ccc21
2 = CCC(CC)n1c(Cc2cccs2)nc2cc(C(=O)N[C@@H](CC(C)C)C(=O)N3CCCC3)ccc21
Given the listed records, identify the one among 1 and 2 with higher EC50. Choose, then provide that item's label.
1

a = CC(C)C[C@H](NC(=O)c1ccc2c(c1)nc(Cc1cccs1)n2[C@@H]1CCCC[C@H]1C)[C@H](O)CC(=O)O
b = CCC(CC)n1c(Cc2cccs2)nc2cc(C(=O)N[C@@H](CC(C)C)C(=O)N3CCC(OC(C)C)CC3)ccc21
Of a and b , which shows the smaller EC50 value? Provide the label of your selected option as the answer.
a
(a: 53 nM, b: 2880 nM)

###

# MEASURED TARGET: human apelin receptor (Homo sapiens, UniProt P35414)
# Construct: expressed in transfected cells
# Sequence (P35414 1-380): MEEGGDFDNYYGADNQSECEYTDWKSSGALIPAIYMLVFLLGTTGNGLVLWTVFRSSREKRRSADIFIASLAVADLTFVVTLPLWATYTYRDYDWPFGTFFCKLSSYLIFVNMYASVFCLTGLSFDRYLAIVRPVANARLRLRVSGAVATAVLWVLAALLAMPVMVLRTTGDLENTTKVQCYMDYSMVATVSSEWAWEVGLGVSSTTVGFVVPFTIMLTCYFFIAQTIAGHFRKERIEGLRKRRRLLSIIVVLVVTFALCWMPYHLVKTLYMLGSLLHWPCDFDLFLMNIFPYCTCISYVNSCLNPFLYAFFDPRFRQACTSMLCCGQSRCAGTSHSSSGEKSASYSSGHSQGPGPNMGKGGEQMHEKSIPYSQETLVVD
# PROTOCOL: Determination of agonism on the human apelin receptor by a calcium fluorescence assay (FLIPR)
# Assay type: cell-based
# TEST PARAMETERS: HEK293 cells stably transfected with human apelin receptor and Giaq protein, Fluo-4 calcium fluorescence, read-out: EC50 (APJ agonism)
ENDPOINT NAME: EC50 (nM)

Field: example entries. Status: answers known.
CCC(CC)n1c(Cc2cccs2)nc2cc(C(=O)N[C@@H](CC(C)C)C(=O)NC3CCOCC3)ccc21 :: 407
CCC(CC)n1c(Cc2cccs2)nc2cc(C(=O)N[C@@H](CC(C)C)C(=O)NCCC3CCOCC3)ccc21 :: 3560
CCCC(NC(=O)c1ccc2c(c1)nc(Cc1cccs1)n2C(CC)CC)C(C)(C)C(=O)O (stereo not shown) [Example 63] :: 343

I = CCC(CC)n1c(Cc2ccco2)nc2cc(C(=O)NC(C)(CC(C)C)C(=O)O)ccc21 (stereo not shown)
II = CCCC(NC(=O)c1ccc2c(c1)nc(Cc1cccs1)n2C(CC)CC)C(C)(C)C(=O)O (single isomer, unassigned) [Example 466]
III = CCCCC(CC(=O)O)NC(=O)c1ccc2c(c1)nc(Cc1cccs1)n2C(CC)CC (single isomer, unassigned) [Example 453]
IV = CCC(CC)n1c(Cc2cccs2)nc2cc(C(=O)NC(CC3CCCCCC3)C(=O)O)ccc21 (stereo not shown) [Example 39]
Ascending sort, EC50. Put the labels in the requested order and write them down.
I, III, IV, II

###

# MEASURED TARGET: human apelin receptor (Homo sapiens, UniProt P35414)
# Construct: expressed in transfected cells
# Sequence (P35414 1-380): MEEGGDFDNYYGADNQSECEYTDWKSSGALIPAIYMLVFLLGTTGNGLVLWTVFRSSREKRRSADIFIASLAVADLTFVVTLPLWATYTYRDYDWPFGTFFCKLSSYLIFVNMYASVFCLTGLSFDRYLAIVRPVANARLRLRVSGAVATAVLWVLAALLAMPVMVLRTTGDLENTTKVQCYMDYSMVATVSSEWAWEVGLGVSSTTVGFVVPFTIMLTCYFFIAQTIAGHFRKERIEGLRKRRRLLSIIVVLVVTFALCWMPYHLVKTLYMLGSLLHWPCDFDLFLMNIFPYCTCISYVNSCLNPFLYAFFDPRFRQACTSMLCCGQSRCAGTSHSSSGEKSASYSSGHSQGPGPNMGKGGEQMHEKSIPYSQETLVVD
# PROTOCOL: Determination of agonism on the human apelin receptor by a calcium fluorescence assay (FLIPR)
# Type: cell-based
# TEST PARAMETERS: HEK293 cells stably transfected with human apelin receptor and Giaq protein, Fluo-4 calcium fluorescence, read-out: EC50 (APJ agonism)
ENDPOINT NAME: EC50 (nM)

Below, 8 compounds whose answers are already recorded.
CC[C@H](C)[C@@H](CCC(=O)O)NC(=O)c1ccc2c(c1)nc(Cc1cccs1)n2[C@@H]1CCCC[C@H]1C :: 47
CCC(CC)n1c(Cc2ccoc2)nc2cc(C(=O)N[C@@H](CC(C)C)C(=O)O)ccc21 :: 222
CCC(CC)n1c(Cc2cccs2)nc2cc(C(=O)NC(C)(CC(C)C)C(=O)O)ccc21 (single isomer, unassigned) [Example 440] :: 6590
CCC(CC)n1c(Cc2ccsc2)nc2cc(C(=O)N[C@H](CC(=O)O)CC(C)C)ccc21 :: 210
CCCCC(CC(=O)O)NC(=O)c1ccc2c(c1)nc(Cc1cccs1)n2C(CC)CC (single isomer, unassigned) [Example 452] :: 49
CCC(CC)n1c(Cc2cccs2)nc2cc(C(=O)NC(C)(Cc3ccccc3)C(=O)O)ccc21 (stereo not shown) :: 16800
CC(C)C[C@H](NC(=O)c1ccc2c(c1)nc(Cc1cccs1)n2C1CCCCC1)C(N)=O :: 4530
CC(C)C[C@@H](CCC(=O)O)NC(=O)c1ccc2c(c1)nc(Cc1cccs1)n2[C@@H]1CCCC[C@H]1C :: 179

a = CCC(CC)n1c(Cc2cccs2)nc2cc(C(=O)N[C@@H](CC(C)C)C(=O)NCc3ccc(F)cc3)ccc21
b = CCCN1CCC(NC(=O)[C@H](CC(C)C)NC(=O)c2ccc3c(c2)nc(Cc2cccs2)n3C(CC)CC)CC1
Could you please tell me which of these two has the higher EC50: a or b ? // caller expects the label of the chosen entry
a

P = C[C@@H]1CCCC[C@H]1n1c(Cc2cccs2)nc2cc(C(=O)NC(CC(=O)O)CC3CCCCC3)ccc21 (stereo partly shown) [Example 51]
Q = CC(C)C[C@H](NC(=O)c1ccc2c(c1)nc(Cc1ccccc1)n2C1CCCCC1C)C(=O)O (stereo partly shown)
Could you determine which record has the numerically smaller EC50? Candidates: P and Q Indicate which entry you chose by stating its label.
P
(P: 211 nM, Q: 2450 nM)

1 = CCC(C)n1c(CC2CCCC2)nc2cc(C(=O)N[C@@H](CC(C)C)C(=O)O)ccc21 (stereo partly shown)
2 = CC(C)C[C@@H](CC(=O)O)NC(=O)c1ccc2c(c1)nc(Cc1ccco1)n2C1CCCCC1C (stereo partly shown) [Example 99]
When the recorded EC50 values are compared, which is smaller: that of 1 or that of 2 ? API: response body contains the label of the selected item.
2
(2: 46 nM, 1: 27000 nM)

A = CC(C)C[C@H](NC(=O)c1ccc2c(c1)nc(CC1CCCC1)n2C1CCCCC1C)C(=O)O (stereo partly shown)
B = CCCCC(CO)NC(=O)c1ccc2c(c1)nc(Cc1cccs1)n2C(CC)CC (stereo not shown)
Select one: A or B . Criterion: greater recorded EC50. Identify your pick by its label.
A
